FYI, the data here is from patent US8163909B2.

- measured.target: CYP2D6 (Homo sapiens, UniProt P10635)
- Sequence (P10635 whole entry): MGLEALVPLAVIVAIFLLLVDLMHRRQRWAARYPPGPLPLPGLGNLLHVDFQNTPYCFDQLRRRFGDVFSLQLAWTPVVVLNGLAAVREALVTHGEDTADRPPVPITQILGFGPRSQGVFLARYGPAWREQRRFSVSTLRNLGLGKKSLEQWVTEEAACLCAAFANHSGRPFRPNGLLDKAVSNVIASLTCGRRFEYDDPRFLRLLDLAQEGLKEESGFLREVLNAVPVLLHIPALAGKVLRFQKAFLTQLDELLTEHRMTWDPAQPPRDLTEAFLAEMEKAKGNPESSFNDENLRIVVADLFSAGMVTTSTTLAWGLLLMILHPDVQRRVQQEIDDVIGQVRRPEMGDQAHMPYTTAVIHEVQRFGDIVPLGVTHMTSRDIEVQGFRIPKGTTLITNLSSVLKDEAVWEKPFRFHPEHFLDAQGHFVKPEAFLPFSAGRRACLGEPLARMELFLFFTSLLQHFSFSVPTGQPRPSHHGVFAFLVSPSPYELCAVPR
- assay: CYP2D6 inhibition assay (bufuralol, pooled human liver microsomes)
- conditions: 2D6 IC50, CYP enzyme inhibition
pIC50: −log10 of the molar value.
experimental.endpoint: pIC50

CNc1cc(CC(C)(C)C)cc2c1OC1(CCC1)C[C@@H]2NC[C@@H](O)[C@H](Cc1cc(F)cc(F)c1)NC(=O)COC = 5.19
CO[C@H](C)C(=O)N[C@@H](Cc1cc(F)cc(F)c1)[C@H](O)CN[C@H]1CC2(CCC2)Oc2c1cc(CC(C)C)cc2-n1ccnc1 = 5.66
C#Cc1cccc(C[C@H](NC(=O)CC)[C@H](O)CN[C@H]2CC3(CCC3)Oc3ncc(CC(C)(C)C)cc32)c1 = 6.10

====

- assay: Microsomal stability assay, rat liver microsomes
- conditions: rat liver microsomal data
Decision: RLM beneath 40 µL/min/mg gives 1 (yes); RLM meeting or exceeding 40 µL/min/mg gives 0 (no).

CC(C)(C)Cc1cnc2c(c1)[C@@H](NC[C@@H](O)[C@H](Cc1ccc3c(c1)OCO3)NC(=O)[C@@H]1CCO1)CC1(CCC1)O2 [compound 525] = 0 (no)
CO[C@H](C)C(=O)N[C@@H](Cc1ccc(F)c(-c2nccs2)c1)[C@H](O)CN[C@H]1CC2(CCC2)Oc2ncc(CC(C)(C)F)cc21 [compound 760] = 1 (yes)
COCC(=O)N[C@@H](Cc1cccc(-c2nccs2)c1)[C@H](O)CN[C@H]1CC2(CCC2)Oc2ncc(CC(C)C)cc21 [Example 757] = 0 (no)
C#Cc1cccc(C[C@H](NC(=O)[C@@H](C)OC)[C@H](O)CN[C@H]2CC3(CCC3)Oc3ncc(CC(C)C)cc32)c1 [Example 777] = 1 (yes)
CO[C@@H](C)C(=O)N[C@@H](Cc1ccc2c(c1)OCO2)[C@H](O)CN[C@H]1CC2(CCC2)Oc2c1cc(CC(C)(C)C)nc2N(C)C [compound 443] = 0 (no)

====

Catalogue of molecules with associated IC50
- measured.target: CYP3A4 (CYP3A) (Homo sapiens)
- Sequence (P08684 2-503): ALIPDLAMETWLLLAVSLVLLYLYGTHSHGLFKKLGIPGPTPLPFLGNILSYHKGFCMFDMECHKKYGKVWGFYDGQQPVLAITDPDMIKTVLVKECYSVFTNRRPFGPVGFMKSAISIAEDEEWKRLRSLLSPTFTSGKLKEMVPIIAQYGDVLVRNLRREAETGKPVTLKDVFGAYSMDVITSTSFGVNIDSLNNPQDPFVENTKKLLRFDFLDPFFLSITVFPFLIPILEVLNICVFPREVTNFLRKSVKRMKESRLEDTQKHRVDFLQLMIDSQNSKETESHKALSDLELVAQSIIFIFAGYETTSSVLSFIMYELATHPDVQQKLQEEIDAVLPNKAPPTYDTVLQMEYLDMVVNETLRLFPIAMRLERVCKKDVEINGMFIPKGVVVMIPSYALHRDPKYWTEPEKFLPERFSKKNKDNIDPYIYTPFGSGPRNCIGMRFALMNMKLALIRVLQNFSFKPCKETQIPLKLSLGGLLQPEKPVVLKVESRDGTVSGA
- assay: in vitro
- conditions: microsomes, pH 7.4
experimental.endpoint: IC50 (nM)

CC(=O)N[C@@H](Cc1ccc(F)cc1)[C@H](O)CN[C@H]1CC2(CCNC2)Oc2cnc(CC(C)(C)C)cc21 (stereo partly drawn) = 1800
CO[C@H](C)C(=O)N[C@@H](Cc1cc(F)cc(F)c1)[C@H](O)CN[C@H]1CC2(CCC2)Oc2cnc(CC(C)C)cc21 = 200
CO[C@H](C)C(=O)N[C@@H](Cc1ccccc1)[C@H](O)CN[C@H]1CC2(CCC2)Oc2c(-c3cncn3C)cc(CC(C)C)cc21 = 100
COCC(=O)N[C@@H](Cc1ccc(F)cc1)[C@H](O)CN[C@H]1CC2(CCC2)Oc2c1cc(CC(C)(C)C)nc2-c1c[nH]cn1 = 100
CCOCC(=O)N[C@@H](Cc1cc(F)cc(-c2nccs2)c1)[C@H](O)CN[C@H]1CC2(CCC2)Oc2ncc(CC(C)(C)C)cc21 = 300
CO[C@H](C)C(=O)N[C@@H](Cc1cccc(-c2nccs2)c1)[C@H](O)CN[C@H]1CC2(CCC2)Oc2ncc(CC(C)(C)F)cc21 = 200

====

- assay: Microsomal stability assay, human liver microsomes;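 note: pooled human liver microsomes at 0.25 mg/mL with 1 µM compound and NADPH at 37 °C, pH 7.4, for 30 min, unchanged parent quantified by LC-MS/MS against the 0 min sample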
- conditions: human liver microsomal data
Catalogue of compounds with associated HLM
experimental.endpoint: HLM

CC(C)(C)Cc1cnc2c(c1)[C@@H](NC[C@@H](O)[C@H](Cc1ccc(F)cc1)NC(=O)[C@@H]1CN(Cc3cscn3)CCO1)CC1(CCC1)O2 = 169 µL/min/mg
COCC(=O)N[C@@H](Cc1cc(F)cc(F)c1)[C@H](O)CN[C@H]1CC2(CCC2)Oc2c1cc(CC(C)(C)C)nc2Nc1ccncc1 = 142 µL/min/mg
CC(C)(C)Cc1cnc2c(c1)[C@@H](NC[C@@H](O)[C@H](Cc1cccc(C#N)c1)NC(=O)[C@H]1CCCO1)CC1(CC(F)(F)C1)O2 = 736 µL/min/mg

====

- measured.target: Beta Secretase enzyme (BACE) (Homo sapiens, UniProt P56817)
- Sequence (P56817 46-501): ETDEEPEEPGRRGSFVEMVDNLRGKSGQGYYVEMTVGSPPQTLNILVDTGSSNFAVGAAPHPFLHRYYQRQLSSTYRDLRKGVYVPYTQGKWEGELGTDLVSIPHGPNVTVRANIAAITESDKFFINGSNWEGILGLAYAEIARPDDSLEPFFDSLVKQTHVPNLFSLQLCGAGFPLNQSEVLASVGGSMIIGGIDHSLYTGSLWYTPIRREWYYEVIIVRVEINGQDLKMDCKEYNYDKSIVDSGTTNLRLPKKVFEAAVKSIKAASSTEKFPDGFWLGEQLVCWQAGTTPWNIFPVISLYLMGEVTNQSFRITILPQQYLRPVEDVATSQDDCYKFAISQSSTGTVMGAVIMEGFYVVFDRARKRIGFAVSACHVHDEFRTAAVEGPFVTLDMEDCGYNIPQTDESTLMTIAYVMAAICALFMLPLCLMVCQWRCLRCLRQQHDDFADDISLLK
- assay: In vitro enzymatic BACE FRET (fluorescence resonance energy transfer) assay;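 note: fluorescence read after 1 h with 50 nM quenched peptide substrate spanning the BACE cleavage site, in pH 4.2 acetate buffer containing 10% DMSO and nonionic detergent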
- Type: biochemical
- conditions: BACE enzyme assay IC50; read-out: BACE1 FRET assay
pIC50: −log10 of the molar value.
Class MET: pIC50 at least 8. Class NOT MET: pIC50 below 8.

CC(=O)N[C@@H](Cc1ccc(F)cc1)[C@H](O)CN[C@H]1CC2(CCNC2)Oc2cnc(CC(C)(C)C)cc21 (stereo partly drawn) [compound 702] = NOT MET
COCC(=O)N[C@@H](Cc1cccc(-n2ccnc2)c1)[C@H](O)CN[C@H]1CC2(CCC2)Oc2ncc(CC(C)(C)C)cc21 [Example 698] = NOT MET
COCC(=O)N[C@@H](Cc1ccc(F)cc1)[C@H](O)CN[C@H]1CC(C)(C)Oc2c1cc(Br)c1c2OCO1 [compound 745] = NOT MET
CC(=O)N[C@@H](Cc1cc(F)cc(-c2cscn2)c1)[C@H](O)CN[C@H]1CC2(CCC2)Oc2ncc(CC(C)(C)C)cc21 [compound 672] = MET

====

- assay: Microsomal stability assay, rat liver microsomes;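 note: rat liver microsomes (0.25 mg/mL) with about 1 µM compound plus 1 mM NADPH, pH 7.4, 37 °C for 30 min, parent left measured by LC-MS/MS against 0 min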
- conditions: rat liver microsomes
Note that class boundaries on RLM are 0 (below 80 µL/min/mg), 1 (80 µL/min/mg to below 300 µL/min/mg), 2 (300 µL/min/mg or more)

CO[C@H](C)C(=O)N[C@@H](Cc1cccc(C#N)c1)[C@H](O)CN[C@H]1CC2(CCC2)Oc2c(-c3ccncc3)cc(CC(C)(C)C)cc21 = 1
CC(=O)N[C@@H](Cc1cc(F)cc(-c2ccncc2)c1)[C@H](O)CN[C@H]1CC2(CCC2)Oc2ccc(CC(C)(C)C)cc21 = 2
Cc1csc(CN2CCO[C@H](C(=O)N[C@@H](Cc3ccc(F)cc3)[C@H](O)CN[C@H]3CC4(CCC4)Oc4ncc(CC(C)(C)C)cc43)C2)n1 = 2
COCC(=O)N[C@@H](Cc1cccc(F)c1)[C@H](O)CN[C@H]1CC2(CCC2)Oc2c(-c3ccnc(N(C)C)c3)cc(CC(C)(C)C)cc21 = 2
CO[C@H](C)C(=O)N[C@@H](Cc1ccc2c(c1)OCO2)[C@H](O)CN[C@H]1CC2(CCC2)Oc2c1cc(CC(C)C)nc2-c1ccncc1 = 1
CC(=O)N[C@@H](Cc1ccc(-c2cscn2)cc1)[C@H](O)CN[C@H]1CC2(CCC2)Oc2ncc(CC(C)(C)C)cc21 = 0
CC(=O)N[C@@H](Cc1cccc(F)c1)[C@H](O)CN[C@H]1CC2(CCC2)Oc2c1cc(Cl)cc2-n1ccnc1 = 0
CC(=O)N[C@@H](Cc1ccc(F)c(-c2ccncc2)c1)[C@H](O)CN[C@H]1CC2(CCC2)Oc2ccc(CC(C)(C)C)cc21 = 2
CO[C@H](C)C(=O)N[C@@H](Cc1cc(F)cc(F)c1)[C@H](O)CN[C@H]1CC2(CCC2)Oc2c1cc(CC(C)(C)C)nc2-c1cncn1C = 0
COCC(=O)N[C@@H](Cc1cc(F)cc(F)c1)[C@H](O)CN[C@H]1CC2(CCC2)Oc2c1cc(Cl)cc2-n1ccnc1 = 1

====

- measured.target: CYP3A4 (CYP3A) (Homo sapiens);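 note: inhibition of CYP3A-mediated 1-hydroxymidazolam formation after 10 min incubation with NADPH, quantified by HPLC MS relative to metabolite produced without test compound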
- assay: in vitro
- conditions: microsomes, pH 7.4
Catalogue of molecules with associated log10 of IC50
experimental.endpoint: log10 of IC50 (log10 of the value in nM)

CC#Cc1cnc2c(c1)[C@@H](NC[C@@H](O)[C@H](Cc1cccc(Br)c1)NC(=O)COC)CC1(CCC1)O2 [compound 812] = 2.60
COCC(=O)N[C@@H](Cc1cc(F)cc(F)c1)[C@H](O)CN[C@H]1CC2(CCC2)Oc2c(-c3ccncc3)cc(CC(C)C)cc21 [compound 586] = 2.00
COC(OC)C(=O)N[C@@H](Cc1ccc2c(c1)OCO2)[C@H](O)CN[C@H]1CC2(CCC2)Oc2ncc(CC(C)C)cc21 [compound 754] = 2.00
COCC(=O)N[C@@H](Cc1cc(F)cc(F)c1)[C@H](O)CN[C@H]1CC2(CCC2)Oc2c1cc(CC(C)(C)C)nc2-c1ccc2c(c1)OCO2 [compound 629] = 3.08
COCC(=O)N[C@@H](Cc1cccc(-c2nccs2)c1)[C@H](O)CN[C@@H]1C[C@@]2(CCOC2)Oc2ncc(CC(C)(C)C)cc21 [compound 827] = 2.70
COCC(=O)N[C@@H](Cc1cc(F)cc(F)c1)[C@H](O)CN[C@@H]1CC2(CCC2)Oc2c1cc(CC(C)(C)C)nc2-c1cnc[nH]1 [compound 509] = 2.00
CO[C@H](C)C(=O)N[C@@H](Cc1cc(F)cc(-c2nccs2)c1)[C@H](O)CNC1CC2(CCC2)Oc2ncc(CC(C)(F)F)cc21 (stereo partly shown) [compound 765] = 2.30
CC(C)(C)Cc1cnc2c(c1)[C@@H](NC[C@@H](O)[C@H](Cc1ccc(F)cc1)NC(=O)[C@H]1CN(Cc3ccccc3)CCO1)CC1(CCC1)O2 [compound 717] = 2.30
COCC(=O)N[C@@H](Cc1cc(F)cc(F)c1)[C@H](O)CN[C@H]1CC2(CCC2)Oc2c1cc(CC(C)C)cc2-n1ccnc1 [compound 458] = 2.00
COCC(=O)N[C@@H](Cc1ccc(F)c(-c2cscn2)c1)[C@H](O)CN[C@H]1CC2(CCC2)Oc2ncc(CC(C)(C)C)cc21 [compound 683] = 2.30
CC(C)(C)Cc1cnc2c(c1)[C@@H](NC[C@@H](O)[C@H](Cc1ccc3c(c1)OCO3)NC(=O)C1CCO1)CC1(CCC1)O2 (stereo partly shown) [compound 503] = 2.30
COCC(=O)N[C@@H](Cc1cc(F)cc(F)c1)[C@H](O)CN[C@H]1CC2(CCC2)Oc2c(-c3ccncc3)cc(C3CC3)cc21 [compound 783] = 2.48
COCC(=O)N[C@@H](Cc1cc(F)cc(F)c1)[C@H](O)CN[C@H]1CC2(CCC2)Oc2c(Br)cc(CC(C)(C)C)cc21 [compound 464] = 3.18
CCO[C@@H](C)C(=O)N[C@@H](Cc1ccc2c(c1)OCO2)[C@H](O)CN[C@H]1CC2(CCC2)Oc2ncc(CC(C)C)cc21 [compound 809] = 2.30
COCC(=O)N[C@@H](Cc1cccc(F)c1)[C@H](O)CN[C@@H]1CC2(CCC2)Oc2c1cc(CC(C)(C)C)nc2-n1ccnc1 [compound 502] = 2.00
COCC(=O)N[C@@H](Cc1ccc(F)cc1)[C@H](O)CN[C@H]1CC(C)(C)Oc2c1cc(CC(C)C)c1c2OCO1 [Example 747] = 2.30
C#Cc1cccc(C[C@H](NC(=O)COC)[C@H](O)CN[C@H]2CC3(CCC3)Oc3ncc(CC(C)(C)C(F)(F)F)cc32)c1 [compound 838] = 2.00
COCC(=O)N[C@@H](Cc1cc(Br)cc(-c2nccs2)c1)[C@H](O)CN[C@H]1CC2(CCC2)Oc2ncc(CC(C)(C)C)cc21 [compound 851] = 2.30
COCC(=O)N[C@H](Cc1cccc(-c2nccs2)c1)[C@@H](O)CN[C@H]1CC2(CCC2)Oc2ncc(C3CCCC3)cc21 [compound 810] = 2.00
CC(=O)N[C@@H](Cc1ccc(F)c(-c2ccncc2)c1)[C@H](O)CN[C@H]1CC2(CCC2)Oc2ccc(CC(C)(C)C)cc21 [compound 625] = 2.20
COCC(=O)N[C@@H](Cc1ccc2c(c1)OCO2)[C@H](O)CN[C@H]1CC2(CCC2)Oc2c(-c3ccccn3)cc(CC(C)C)cc21 [compound 767] = 2.00
COCC(=O)N[C@@H](Cc1cc(F)cc(F)c1)[C@H](O)CN[C@H]1CC2(CCC2)Oc2c1cc(CC(C)(C)C)nc2-c1ccncc1 [Example 528] = 2.00
COCC(=O)N[C@@H](Cc1cc(F)cc(-c2nccs2)c1)[C@H](O)CNC1CC2(CCC2)Oc2ncc(CC(C)(F)F)cc21 (stereo partly shown) [Example 764] = 2.48
